ASSAY_SYSTEM: N-type calcium channel subunits (α1B, α2δ, and β3a) (Homo sapiens, UniProt Q00975)
Sequence (Q00975 whole entry): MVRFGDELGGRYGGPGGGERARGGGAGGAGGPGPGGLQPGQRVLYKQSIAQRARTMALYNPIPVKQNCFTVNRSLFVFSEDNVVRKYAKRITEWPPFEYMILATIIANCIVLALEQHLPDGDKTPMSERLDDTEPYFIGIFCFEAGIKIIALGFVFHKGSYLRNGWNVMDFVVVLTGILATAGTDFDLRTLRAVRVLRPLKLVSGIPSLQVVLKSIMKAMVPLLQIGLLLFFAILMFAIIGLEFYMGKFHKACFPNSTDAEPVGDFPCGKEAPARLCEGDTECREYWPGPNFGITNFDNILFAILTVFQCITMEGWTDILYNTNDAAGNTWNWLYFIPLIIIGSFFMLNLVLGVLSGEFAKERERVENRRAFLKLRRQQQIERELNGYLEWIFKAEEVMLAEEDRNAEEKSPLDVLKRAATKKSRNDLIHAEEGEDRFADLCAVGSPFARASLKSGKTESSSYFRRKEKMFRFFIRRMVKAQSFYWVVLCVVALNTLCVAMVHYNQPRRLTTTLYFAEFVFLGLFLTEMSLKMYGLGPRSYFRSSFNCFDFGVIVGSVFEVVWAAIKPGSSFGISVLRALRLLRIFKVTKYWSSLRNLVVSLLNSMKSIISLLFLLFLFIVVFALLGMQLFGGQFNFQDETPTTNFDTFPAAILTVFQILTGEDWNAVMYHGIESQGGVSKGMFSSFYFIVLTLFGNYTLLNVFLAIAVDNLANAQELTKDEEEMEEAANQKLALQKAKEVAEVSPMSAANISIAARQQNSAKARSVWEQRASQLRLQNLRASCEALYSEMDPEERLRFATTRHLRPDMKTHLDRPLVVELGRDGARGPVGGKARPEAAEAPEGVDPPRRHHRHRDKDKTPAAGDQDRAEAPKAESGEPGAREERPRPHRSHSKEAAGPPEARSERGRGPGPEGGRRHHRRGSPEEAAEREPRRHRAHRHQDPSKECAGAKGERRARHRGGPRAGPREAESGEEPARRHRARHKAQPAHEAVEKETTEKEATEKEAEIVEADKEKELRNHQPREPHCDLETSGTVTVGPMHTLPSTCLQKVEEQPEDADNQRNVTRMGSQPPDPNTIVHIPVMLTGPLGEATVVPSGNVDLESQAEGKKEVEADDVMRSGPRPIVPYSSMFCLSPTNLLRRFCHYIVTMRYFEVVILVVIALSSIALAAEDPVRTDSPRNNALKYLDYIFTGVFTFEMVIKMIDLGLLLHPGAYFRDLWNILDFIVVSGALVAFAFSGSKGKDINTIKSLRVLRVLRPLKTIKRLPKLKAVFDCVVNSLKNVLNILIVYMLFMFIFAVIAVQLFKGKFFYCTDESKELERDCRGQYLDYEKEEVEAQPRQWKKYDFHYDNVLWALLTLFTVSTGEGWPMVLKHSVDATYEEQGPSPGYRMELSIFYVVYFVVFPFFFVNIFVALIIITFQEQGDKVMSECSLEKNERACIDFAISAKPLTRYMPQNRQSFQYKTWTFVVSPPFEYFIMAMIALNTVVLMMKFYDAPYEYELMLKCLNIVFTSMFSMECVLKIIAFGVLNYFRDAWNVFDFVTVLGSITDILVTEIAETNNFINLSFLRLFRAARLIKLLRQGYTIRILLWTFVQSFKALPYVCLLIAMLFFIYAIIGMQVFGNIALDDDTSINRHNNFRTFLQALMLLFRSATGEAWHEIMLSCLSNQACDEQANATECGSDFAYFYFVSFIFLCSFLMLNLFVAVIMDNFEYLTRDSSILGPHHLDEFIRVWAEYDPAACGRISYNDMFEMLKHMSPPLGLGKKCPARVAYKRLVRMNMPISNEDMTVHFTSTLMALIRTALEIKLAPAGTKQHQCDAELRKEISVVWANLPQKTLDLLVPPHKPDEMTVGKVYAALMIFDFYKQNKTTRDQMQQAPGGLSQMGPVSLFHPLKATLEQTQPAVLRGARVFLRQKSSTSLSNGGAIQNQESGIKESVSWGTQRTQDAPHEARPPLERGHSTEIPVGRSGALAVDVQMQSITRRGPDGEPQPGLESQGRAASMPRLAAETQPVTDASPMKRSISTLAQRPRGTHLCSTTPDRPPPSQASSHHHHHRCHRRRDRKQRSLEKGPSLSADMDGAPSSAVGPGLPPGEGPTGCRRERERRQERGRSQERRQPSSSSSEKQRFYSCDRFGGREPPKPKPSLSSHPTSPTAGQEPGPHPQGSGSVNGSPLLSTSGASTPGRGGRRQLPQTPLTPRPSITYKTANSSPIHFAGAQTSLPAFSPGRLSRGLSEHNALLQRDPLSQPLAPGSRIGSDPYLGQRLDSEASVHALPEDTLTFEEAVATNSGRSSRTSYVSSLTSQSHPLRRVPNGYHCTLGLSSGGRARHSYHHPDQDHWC
Sequence (P54289 25-1103 partner): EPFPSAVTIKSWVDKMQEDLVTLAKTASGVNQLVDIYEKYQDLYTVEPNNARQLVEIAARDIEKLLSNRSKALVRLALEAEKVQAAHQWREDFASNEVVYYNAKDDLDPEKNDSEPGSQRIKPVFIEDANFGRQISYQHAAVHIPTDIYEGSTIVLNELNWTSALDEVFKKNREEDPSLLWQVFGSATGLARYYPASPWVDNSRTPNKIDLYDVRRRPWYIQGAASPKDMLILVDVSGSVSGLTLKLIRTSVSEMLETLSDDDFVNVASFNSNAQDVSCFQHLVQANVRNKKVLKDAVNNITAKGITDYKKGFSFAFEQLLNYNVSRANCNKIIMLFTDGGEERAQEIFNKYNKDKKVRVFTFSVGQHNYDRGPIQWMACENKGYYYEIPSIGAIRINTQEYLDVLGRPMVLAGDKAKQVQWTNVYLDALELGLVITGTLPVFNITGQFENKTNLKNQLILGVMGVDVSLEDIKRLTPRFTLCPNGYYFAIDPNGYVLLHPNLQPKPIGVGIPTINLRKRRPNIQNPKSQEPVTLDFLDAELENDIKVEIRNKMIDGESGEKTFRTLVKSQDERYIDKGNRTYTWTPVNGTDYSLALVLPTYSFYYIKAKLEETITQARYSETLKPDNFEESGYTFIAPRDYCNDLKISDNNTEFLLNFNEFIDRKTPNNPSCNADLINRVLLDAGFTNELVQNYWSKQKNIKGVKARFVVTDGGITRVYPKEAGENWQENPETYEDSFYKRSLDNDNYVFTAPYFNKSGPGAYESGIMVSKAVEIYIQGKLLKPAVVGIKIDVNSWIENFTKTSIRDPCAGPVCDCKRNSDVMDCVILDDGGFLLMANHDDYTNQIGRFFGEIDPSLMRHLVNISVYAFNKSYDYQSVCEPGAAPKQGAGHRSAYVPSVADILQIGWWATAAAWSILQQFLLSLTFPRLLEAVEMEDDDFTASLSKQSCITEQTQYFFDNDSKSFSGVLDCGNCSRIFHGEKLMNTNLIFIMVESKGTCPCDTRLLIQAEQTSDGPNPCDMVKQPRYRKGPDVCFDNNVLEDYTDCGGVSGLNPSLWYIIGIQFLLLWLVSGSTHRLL
Sequence (P54284 whole entry partner): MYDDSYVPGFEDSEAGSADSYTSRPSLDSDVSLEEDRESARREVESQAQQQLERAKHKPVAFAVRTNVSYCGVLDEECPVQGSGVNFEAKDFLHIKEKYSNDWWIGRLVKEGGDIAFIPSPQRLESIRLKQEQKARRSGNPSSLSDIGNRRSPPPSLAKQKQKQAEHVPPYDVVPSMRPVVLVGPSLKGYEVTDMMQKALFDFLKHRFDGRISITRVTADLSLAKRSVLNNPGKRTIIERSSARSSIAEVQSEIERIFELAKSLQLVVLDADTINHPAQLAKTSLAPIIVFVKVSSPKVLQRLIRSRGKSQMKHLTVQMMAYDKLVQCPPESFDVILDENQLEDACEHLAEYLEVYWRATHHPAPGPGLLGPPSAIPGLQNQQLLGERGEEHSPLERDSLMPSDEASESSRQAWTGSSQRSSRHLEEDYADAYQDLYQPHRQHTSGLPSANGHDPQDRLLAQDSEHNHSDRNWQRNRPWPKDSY
METHOD_DESCRIPTION: Block of Cav2.2 channel, whole cell voltage clamp, manual and PatchXpress
Type: cell-based
CONDITION_DESCRIPTION: Table 5; table follows Assay Example 3 (whole cell voltage clamp / PatchXpress); assay not given
MEASURE: IC50 (nM)

- O=C(NC[C@H]1C[C@H](S(=O)(=O)c2cccc(C(F)(F)F)c2)C1)c1ccc(F)c(Cl)c1: 200
- CC1(S(=O)(=O)c2cccc(C(F)(F)F)c2)CCC(NC(=O)c2cnc(C(F)(F)F)nc2)CC1 (stereo not shown): 950
- Cn1nc(C(F)(F)F)cc1C(=O)NC1CCC(S(=O)(=O)c2cccc(C(F)(F)F)c2)CC1 (stereo not shown): 690
- O=C(CN[C@H]1C[C@H](S(=O)(=O)c2cccc(C(F)(F)F)c2)C1)NC1CCC(F)(F)CC1: 960
- CC(C)(C)NCC(=O)N[C@H]1CC[C@H](CS(=O)(=O)c2cccc(C(F)(F)F)c2)CC1: 1990
- O=C(N[C@H]1CC[C@@](F)(S(=O)(=O)c2cccc(C(F)(F)F)c2)CC1)[C@@H]1C[C@@H](Cc2ccc(F)cc2)CN1: 310
- O=C(N[C@H]1CC[C@@H](S(=O)(=O)c2cccc(C(F)(F)F)c2)CC1)c1cnccc1C(F)(F)F: 3150
